Hello, the source for this data is patent US20210246166A1, in case you need it.

- studyTarget: Recombinant human MASP2 enzyme (fragment corresponding to amino acids 297-686, C-terminal His Tag) (human, UniProt O00187 297-686)
- Sequence (O00187 other isoform, or with tags, fused parts or gaps limits assumed): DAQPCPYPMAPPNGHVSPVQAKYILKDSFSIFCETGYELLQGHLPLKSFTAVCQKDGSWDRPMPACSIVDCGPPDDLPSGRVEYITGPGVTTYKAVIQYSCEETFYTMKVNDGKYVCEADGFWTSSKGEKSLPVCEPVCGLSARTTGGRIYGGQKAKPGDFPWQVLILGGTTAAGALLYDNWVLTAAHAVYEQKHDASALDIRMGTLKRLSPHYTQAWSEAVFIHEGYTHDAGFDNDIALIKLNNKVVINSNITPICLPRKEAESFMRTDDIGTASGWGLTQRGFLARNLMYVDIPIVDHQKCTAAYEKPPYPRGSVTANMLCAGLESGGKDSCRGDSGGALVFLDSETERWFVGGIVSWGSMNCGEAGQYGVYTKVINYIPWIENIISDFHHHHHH
- assayRemarks: cell-based or functional assay
Bridge positions count the residues as written; N and C are the ends. Square brackets hold non-standard residues; d marks the D form. Ends that are not written are not given here. Oic = O=C(O)[C@@H]1C[C@@H]2CCCC[C@@H]2N1; tBuAla = CC(C)(C)C[C@H](N)C(=O)O; Pen = CC(C)(S)[C@H](N)C(=O)O; ΔPro = O=C(O)[C@@H]1C=CCN1; Sar = CNCC(=O)O
List of human MASP2 IC50 values.
propertyLabel: human MASP2 IC50 (nM)

binder	experimentalResult
AICSRS[tBuAla]P[Oic]ICIPD-NH2 (disulfide 3-11; N-terminus assumed; SMILES CC[C@H](C)[C@H](NC(=O)[C@H](C)N)C(=O)N[C@H]1CSSC[C@@H](C(=O)N[C@H](C(=O)N2CCC[C@H]2C(=O)N[C@@H](CC(=O)O)C(N)=O)[C@@H](C)CC)NC(=O)[C@H]([C@@H](C)CC)NC(=O)[C@@H]2C[C@@H]3CCCC[C@@H]3N2C(=O)[C@@H]2CCCN2C(=O)[C@H](CC(C)(C)C)NC(=O)[C@H](CO)NC(=O)[C@H](CCCNC(=N)N)NC(=O)[C@H](CO)NC1=O) [AIC+SRS-((tBu)A)-P-(Oic)-I-C+IPD-NH2]	260
[Sar]ICSRSLP[Oic]I[Pen]I[5‑Azaspiro(2.4)heptane‑1‑carboxylic acid]-OH (disulfide 3-11) [((N-Me)G)-IC+SRSLP-(Oic)-I-(Pen)+I-((5-Azaspiro[2.4]heptane-1-carboxylic acid)-OH]	100
AICSRSL[ΔPro][Oic]I[Pen]IPD-OH (disulfide 3-11; N-terminus assumed; SMILES CC[C@H](C)[C@H](NC(=O)[C@H](C)N)C(=O)N[C@H]1CSSC(C)(C)[C@@H](C(=O)N[C@H](C(=O)N2CCC[C@H]2C(=O)N[C@@H](CC(=O)O)C(=O)O)[C@@H](C)CC)NC(=O)[C@H]([C@@H](C)CC)NC(=O)[C@@H]2C[C@@H]3CCCC[C@@H]3N2C(=O)[C@@H]2C=CCN2C(=O)[C@H](CC(C)C)NC(=O)[C@H](CO)NC(=O)[C@H](CCCNC(=N)N)NC(=O)[C@H](CO)NC1=O) [AIC+SRSL-(L-dehydroproline)-(Oic)-I-(Pen)+IPD-OH]	64
